B1: ZNF263 (parent)
chain: CSECGESFSRSSRLMSHQRTHTG

Variants of: B1
Method: protein stability index of a GFP-peptide fusion (GPS, HEK-293T) (PSI 1-6); higher = more stable;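 also: lentivirally expressed fusions sorted by FACS into six bins by GFP to DsRed ratio, PSI derived from sequencing read proportions per bin multiplied by bin number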
Conditions: c terminus: native
Assign class by protein stability index: not lower than 3 means yes (1); lower than 3 means no (0).

As a guide, the following entries are already answered.
Mutation notation	Class name
T20E	no (0)
M15F	yes (1)
E3Y	yes (1)

Is protein stability index at least 3? Consider R10H
yes (1)

Is protein stability index at least 3? Consider T20L
yes (1)

Is protein stability index at least 3? Consider E6Y
no (0)

Is protein stability index at least 3? Consider S7R
no (0)

Is protein stability index at least 3? Consider G5D
no (0)
